Tested on: Liver
Assay method text: Antioxidant activity in Wistar rat liver assessed as inhibition of Fe2+/ascorbate-induced lipid peroxidation at 0.1 mM after 1 hr by TBARS assay relative to control
Type: functional, tissue-based
The entries below come with measured inhibition values attached.

{"Smiles string": "COc1cc(-c2cc3cc(F)ccc3[nH]2)cc(OC)c1OC", "inhibition [%]": 10}
{"Smiles string": "COc1cc(-c2cc3ccccc3[nH]2)cc(OC)c1OC", "inhibition [%]": 33}
{"Smiles string": "Nc1ccc(-c2cc3cc(Cl)ccc3[nH]2)cc1", "inhibition [%]": 30}
{"Smiles string": "COc1ccc(-c2cc3cc(F)cc(Cl)c3[nH]2)cc1", "inhibition [%]": 6}
{"Smiles string": "Nc1ccc(-c2cc3cccc(F)c3[nH]2)cc1", "inhibition [%]": 26}
{"Smiles string": "COc1ccc2[nH]cc(CCNC(C)=O)c2c1", "inhibition [%]": 45}
{"Smiles string": "Nc1ccc(-c2cc3ccc(F)cc3[nH]2)cc1", "inhibition [%]": 22}
{"Smiles string": "Nc1ccc(-c2cc3cc(F)ccc3[nH]2)cc1", "inhibition [%]": 17}
{"Smiles string": "COc1ccc(-c2cc3cc(F)ccc3[nH]2)cc1OC", "inhibition [%]": 10}
{"Smiles string": "O=[N+]([O-])c1ccc(-c2cc3cc(F)cc(Cl)c3[nH]2)cc1", "inhibition [%]": 5}
{"Smiles string": "COc1ccc(-c2cc3cc(F)ccc3[nH]2)cc1F", "inhibition [%]": 7}

====

Test system: Liver
Assay method text: Antioxidant activity in Wistar rat liver assessed as inhibition of Fe2+/ascorbate-induced lipid peroxidation at 1 mM after 1 hr by TBARS assay relative to control
Format: functional, tissue-based
# reported inhibition; entries follow

{"Smiles string": "COc1ccc(-c2cc3cc(F)cc(Cl)c3[nH]2)cc1", "Tested system": "Liver", "inhibition": "33%"}
{"Smiles string": "COc1ccc(-c2cc3cc(F)ccc3[nH]2)cc1F", "Tested system": "Liver", "inhibition": "13%"}
{"Smiles string": "COc1ccc(-c2cc3ccccc3[nH]2)cc1OC", "Tested system": "Liver", "inhibition": "27%"}
{"Smiles string": "O=[N+]([O-])c1ccc(-c2cc3cc(F)cc(Cl)c3[nH]2)cc1", "Tested system": "Liver", "inhibition": "20%"}
{"Smiles string": "COc1ccc2[nH]cc(CCNC(C)=O)c2c1", "Tested system": "Liver", "inhibition": "85%"}
{"Smiles string": "Nc1ccc(-c2cc3ccccc3[nH]2)cc1", "Tested system": "Liver", "inhibition": "26%"}
{"Smiles string": "Nc1ccc(-c2cc3cccc(F)c3[nH]2)cc1", "Tested system": "Liver", "inhibition": "30%"}
{"Smiles string": "Nc1ccc(-c2cc3ccc(Cl)cc3[nH]2)cc1", "Tested system": "Liver", "inhibition": "35%"}
{"Smiles string": "COc1ccc(-c2cc3cc(F)cc(Cl)c3[nH]2)cc1OC", "Tested system": "Liver", "inhibition": "24%"}
{"Smiles string": "Nc1ccc(-c2cc3c(Cl)cccc3[nH]2)cc1", "Tested system": "Liver", "inhibition": "30%"}
{"Smiles string": "Nc1ccc(-c2cc3cc(Cl)ccc3[nH]2)cc1", "Tested system": "Liver", "inhibition": "31%"}
{"Smiles string": "COc1cc(-c2cc3ccccc3[nH]2)cc(OC)c1OC", "Tested system": "Liver", "inhibition": "28%"}
{"Smiles string": "COc1ccc(-c2cc3cc(F)ccc3[nH]2)cc1OC", "Tested system": "Liver", "inhibition": "24%"}
{"Smiles string": "COc1ccc2[nH]c(-c3ccc(N)cc3)cc2c1", "Tested system": "Liver", "inhibition": "42%"}
{"Smiles string": "Nc1ccc(-c2cc3ccc(F)cc3[nH]2)cc1", "Tested system": "Liver", "inhibition": "35%"}
{"Smiles string": "Nc1ccc(-c2cc3cc(F)ccc3[nH]2)cc1", "Tested system": "Liver", "inhibition": "19%"}
{"Smiles string": "COc1ccc(-c2cc3ccccc3[nH]2)cc1", "Tested system": "Liver", "inhibition": "24%"}
{"Smiles string": "COc1cc(-c2cc3cc(F)ccc3[nH]2)cc(OC)c1OC", "Tested system": "Liver", "inhibition": "19%"}

====

Test system: Liver
Assay method text: Antioxidant activity in Wistar rat liver assessed as inhibition of Fe2+/ascorbate-induced lipid peroxidation at 0.1 mM after 1 hr by TBARS assay relative to control
Type: functional, tissue-based
Form field: inhibition (one value per entry).

{"Smiles string": "COc1ccc(-c2cc3ccccc3[nH]2)cc1", "inhibition [%]": 14}
{"Smiles string": "COc1ccc(-c2cc3cc(F)cc(Cl)c3[nH]2)cc1OC", "inhibition [%]": 13}
{"Smiles string": "Nc1ccc(-c2cc3c(Cl)cccc3[nH]2)cc1", "inhibition [%]": 30}
{"Smiles string": "Nc1ccc(-c2cc3ccccc3[nH]2)cc1", "inhibition [%]": 13}
{"Smiles string": "COc1ccc2[nH]c(-c3ccc(N)cc3)cc2c1", "inhibition [%]": 33}
{"Smiles string": "COc1ccc(-c2cc3ccccc3[nH]2)cc1OC", "inhibition [%]": 13}
{"Smiles string": "Nc1ccc(-c2cc3ccc(Cl)cc3[nH]2)cc1", "inhibition [%]": 35}

Reference for the values: ChEMBL document CHEMBL2375243
